Source listed as patent US12503471B2.

assay.system: hERG channel (Homo sapiens)
Sequence (Q12809 whole entry): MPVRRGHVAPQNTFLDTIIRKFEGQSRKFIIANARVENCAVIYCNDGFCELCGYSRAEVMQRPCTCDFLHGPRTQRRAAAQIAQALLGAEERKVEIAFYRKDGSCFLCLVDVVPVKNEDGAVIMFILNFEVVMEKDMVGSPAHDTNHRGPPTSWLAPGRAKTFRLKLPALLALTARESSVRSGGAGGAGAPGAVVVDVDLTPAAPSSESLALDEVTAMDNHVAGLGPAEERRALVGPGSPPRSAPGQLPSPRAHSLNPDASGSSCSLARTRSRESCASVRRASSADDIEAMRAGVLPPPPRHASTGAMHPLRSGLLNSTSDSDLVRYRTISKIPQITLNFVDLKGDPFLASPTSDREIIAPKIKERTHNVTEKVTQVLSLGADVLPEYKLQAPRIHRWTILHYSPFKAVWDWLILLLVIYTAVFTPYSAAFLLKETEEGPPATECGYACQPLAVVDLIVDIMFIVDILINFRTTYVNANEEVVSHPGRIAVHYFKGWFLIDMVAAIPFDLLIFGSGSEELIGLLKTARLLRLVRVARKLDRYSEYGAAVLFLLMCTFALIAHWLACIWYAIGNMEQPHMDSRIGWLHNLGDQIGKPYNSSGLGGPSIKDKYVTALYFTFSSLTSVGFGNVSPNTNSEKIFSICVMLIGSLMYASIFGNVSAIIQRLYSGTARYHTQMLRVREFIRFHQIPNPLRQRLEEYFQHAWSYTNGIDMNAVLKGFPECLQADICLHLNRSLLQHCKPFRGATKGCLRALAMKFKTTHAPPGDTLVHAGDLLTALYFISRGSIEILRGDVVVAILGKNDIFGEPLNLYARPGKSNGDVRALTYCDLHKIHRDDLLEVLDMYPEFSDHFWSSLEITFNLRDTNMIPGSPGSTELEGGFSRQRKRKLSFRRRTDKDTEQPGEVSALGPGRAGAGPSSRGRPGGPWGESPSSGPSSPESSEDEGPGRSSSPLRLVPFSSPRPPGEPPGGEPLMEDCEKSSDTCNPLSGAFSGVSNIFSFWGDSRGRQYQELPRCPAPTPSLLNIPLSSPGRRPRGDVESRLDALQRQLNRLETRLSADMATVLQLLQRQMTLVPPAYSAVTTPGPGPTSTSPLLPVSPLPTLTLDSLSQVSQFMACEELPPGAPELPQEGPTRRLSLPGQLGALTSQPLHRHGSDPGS
experimental.details: hERG channel inhibition assay
test.conditions: CHO cells expressing hERG, whole-cell patch-clamp
Quick reference: IC50 of the listed items.

Would you please look over these solved cases?
smiles.text	IC50
[2H]c1ccc2c(N3C[C@@H](C)N4Cc5nc(N6CC[C@](C)(N)C6)ccc5[C@H]4C3)ccc(C#N)c2n1	> 20 µM
[2H]c1ccc2c(N3C[C@@H](C)N4Cc5nc(N6C[C@H]7C[C@@H]6CN7)ccc5[C@H]4C3)ccc(C#N)c2n1	> 20 µM
[2H]c1ccc2c(N3C[C@@H](C)N4Cc5nc(N6CCC7(CNC7)C6)ccc5[C@H]4C3)ccc(C#N)c2n1	> 20 µM
[2H]c1ccc2c(N3C[C@@H](C)N4Cc5nc(N6CC[C@@](C)(N)C6)ccc5[C@H]4C3)ccc(C#N)c2n1	> 20 µM

Problem: So what's the measured IC50 for this one? C[C@@H]1CN(c2ccc(C#N)c3ncccc23)C[C@@H]2c3ccc(N4CC5CNCC(C4)O5)nc3CN12
Result: > 20 µM

Problem: # IC50 lookup, item C[C@@H]1CN(c2ccc(C#N)c3ncccc23)C[C@@H]2c3ccc(N4CCCNCC4)nc3CN12
Result: > 20 µM
